experiment-description: ATP-evoked calcium signal inhibitors, parental CHO, primary screen, counter-screen for OX1R antagonist project, cell-based, fluorescence, Fluo-8 calcium dye (AID 463079)
test-settings: parental CHO-K1, ATP-induced calcium, Fluo-8 fluorescence; at 5.6 µM
Hit rate of the full screen: of about 330,000 compounds, about 2,000 (0.61%) were called active.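 The calls were made as follows: active = inhibition above that plate's mean sample inhibition plus 3 SD (cut at about 26% in these data); inactive = the rest.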 The sample holds actives, similar compounds and a random draw of the others, so the mix is not that of the screen.
Outcome (select one): active, inactive

**Query** Look up the recorded call for Fc1ccccc1COc1cccc2cccnc12 in this test.
**Result** inactive

**Query** Look up the recorded call for CN(C)CCN(Cc1ccccc1)S(=O)(=O)c1csc(C(N)=O)c1 in this test.
**Result** inactive

**Query** Look up the recorded call for Cn1nccc1C(=O)NC1CCCc2c1cnn2-c1ccccc1F (stereo not drawn) in this test.
**Result** active

**Query** Look up the recorded call for O=C(CN1C(=O)NC(Cc2c[nH]c3ccccc23)C1=O)Nc1ccccc1C(F)(F)F (stereo not drawn) in this test.
**Result** inactive

**Query** Look up the recorded call for CSC1=NC2(C)CCCCC2C12C=CC(=O)C=C2 (stereo not drawn) in this test.
**Result** inactive

**Query** Look up the recorded call for CN(C)C(=O)CCc1ccc2c3c([nH]c2c1)[C@]1(C)[C@@H](C(=O)N2CCOCC2)C[C@H](CC(=O)NCCc2ccccn2)C(=O)N1CC3 in this test.
**Result** inactive

**Query** Look up the recorded call for CC1(C)C2CCC1(C)C(OC(=O)c1ccc(O)cc1)C2 (stereo not drawn) in this test.
**Result** active

**Query** Look up the recorded call for COc1ccc(C(=O)NC2CC(C)(C)Cc3c2cnn3-c2ccccc2C)o1 (stereo not drawn) in this test.
**Result** inactive

**Query** Look up the recorded call for COC(=O)c1ccc(C(=O)NC2CC(C)(C)Cc3c2cnn3-c2ccc(F)cc2)nc1 (stereo not drawn) in this test.
**Result** inactive

**Query** Look up the recorded call for CC(=O)NCC(=O)NC1CCCc2c1cnn2-c1ccccc1F (stereo not drawn) in this test.
**Result** inactive

**Query** Look up the recorded call for S=C(NCCC1=CCCCC1)Nc1ccccc1 in this test.
**Result** inactive

**Query** Look up the recorded call for COc1ccc(CCNC(=O)CN(C)S(=O)(=O)c2ccc3nc(C)sc3c2)cc1OC in this test.
**Result** inactive

**Query** Look up the recorded call for Cc1ccc2cccc(O)c2[n+]1[O-] in this test.
**Result** inactive

**Query** Look up the recorded call for COc1ccc(C(=O)NC2CCCc3c2cnn3-c2cccc(C)c2C)c(OC)n1 (stereo not drawn) in this test.
**Result** active

**Query** Look up the recorded call for COC(=O)Nc1ncc(CN2CCCCC2)s1 in this test.
**Result** inactive

**Query** Look up the recorded call for COCCCN1C(=O)C(=O)/C(=C(/O)c2ccc(S(=O)(=O)N3CCOCC3)cc2)C1c1ccc(F)cc1 (stereo not drawn) in this test.
**Result** inactive

**Query** Look up the recorded call for Cc1nc2ccccc2cc1OCc1ccc(F)cc1 in this test.
**Result** active

**Query** Look up the recorded call for Cc1occc(=O)c1OCc1ccc(F)cc1 in this test.
**Result** inactive

**Query** Look up the recorded call for COc1cc(NC(=O)CSc2nnc3ccc(-c4ccncc4)nn23)cc(OC)c1 in this test.
**Result** inactive

**Query** Look up the recorded call for CC(c1ccccn1)N(C)C(=O)c1ccc2nc(Cc3cccc(Cl)c3)oc2c1 (stereo not drawn) in this test.
**Result** inactive

**Query** Look up the recorded call for Cc1cc(C(=O)NC2CCCc3c2cnn3-c2cccc(C)c2C)c(C)o1 (stereo not drawn) in this test.
**Result** inactive

**Query** Look up the recorded call for CC1(C)C2CCC1(C)C(OC(=O)CCn1ccnc1)C2 (stereo not drawn) in this test.
**Result** inactive

**Query** Look up the recorded call for CCN1/C(=C/c2ccc3ccc(C)cc3[n+]2CC)Sc2ccccc21 in this test.
**Result** active
